experiment: Selectivity index, ratio of IC50 for CHO cells to IC50 for Plasmodium falciparum NF54; format: toxicity, cell-based; conditions: hamster, read-out: Ratio IC50
The entries below are paired with their reported selectivity ratio.
endpoint: selectivity ratio

> print(dat)
                                   compound  reported.result
1  CS(=O)(=O)c1ccc(-c2cnn3c2NC(c2cccc(S(=O)(=O)C4CC4)c2)CC3)cc1 (stereo not given)           > 1000
2  CS(=O)(=O)c1ccc(-c2cnn3ccc(-c4cccc(S(C)(=O)=O)c4)cc23)cc1           > 1000
3  CS(=O)(=O)c1ccc(-c2cnc3ccc(-c4cccc(S(=O)(=O)C5CC5)c4)cn23)cc1              700
4  C[S+]([O-])c1ccc(-c2cnn3ccc(-c4cccc(S(=O)(=O)C5CC5)c4)cc23)cc1 (stereo not given)           > 1000
5  CS(=O)(=O)c1ccc(-c2cnc3ccc(-c4cccc(S(C)(=O)=O)c4)nn23)cc1           > 1000
